assayedTarget: T1, biotinylated human DLL3 protein expressed as a human IgG1 fusion protein (human, UniProt Q9NYJ7 27-492, limits assumed, biotinylated)
T1 sequence: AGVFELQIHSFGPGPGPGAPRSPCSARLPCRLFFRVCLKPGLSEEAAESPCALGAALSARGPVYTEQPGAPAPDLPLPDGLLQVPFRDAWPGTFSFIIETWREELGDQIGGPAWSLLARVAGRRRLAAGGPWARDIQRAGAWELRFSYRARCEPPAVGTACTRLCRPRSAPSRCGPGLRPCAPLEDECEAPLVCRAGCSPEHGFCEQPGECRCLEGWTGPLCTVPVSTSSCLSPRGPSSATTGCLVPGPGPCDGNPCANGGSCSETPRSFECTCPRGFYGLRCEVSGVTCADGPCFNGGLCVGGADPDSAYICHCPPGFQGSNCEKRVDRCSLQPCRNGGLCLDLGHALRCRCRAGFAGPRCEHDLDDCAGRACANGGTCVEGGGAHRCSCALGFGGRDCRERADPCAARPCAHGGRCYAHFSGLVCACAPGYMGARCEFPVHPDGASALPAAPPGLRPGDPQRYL
assayDetails: Octet BLI, single 50 nM
Documented pKd across a set of binders
# pKd = -log10(concentration in molar units)

binder	pKd
2C02 anti-DLL3 trispecific protein (other, not shown: linker 1808, anti-albumin sdAb, linker 1808, anti-CD3 fragment, His6 1819) EVQLVESGGGLVQPGGSLTLSCVASGSTSSINAVGWYRRAPGKQRELVAGISSDGSKVYVDSVKGRFTISRDNAKNSVYLQMNSLRAEDTAVYYCYYFRTVYGSSMRYWGQGTLVTVSS	8.39
2B01 anti-DLL3 trispecific protein (other, not shown: linker 1808, anti-albumin sdAb, linker 1808, anti-CD3 fragment, His6 1819) EVQLVESGGGLVQPGGSLTLSCVASGSTSLINAMGWYRRAPGKQRELVAGISSDGSKVYADSVKGRFTISRDNAKNSVYLQMNSLRAEDTAVYYCYYFRHVSGSSMRYWGQGTLVTVSS	8.00
4B06 anti-DLL3 trispecific protein (other, not shown: linker 1808, anti-albumin sdAb, linker 1808, anti-CD3 fragment, His6 1819) EVQLVESGGGLVQPGGSLTLSCAASGSRVSFLSMAWYRQAPGKKRELVAGISADGSTDYFDSVKGRFTISRDNAKNSVYLQMNSLRAEDTAVYYCYAYRWTRRYTYWGQGTLVTVSS	7.80
2E02 anti-DLL3 trispecific protein (other, not shown: linker 1808, anti-albumin sdAb, linker 1808, anti-CD3 fragment, His6 1819) EVQLVESGGGLVQPGGSLTLSCVASGSTSAINAMGWYRRAPGKQRELVAGISSDGSKVYVDSVKGRFTISRDNAKNSVYLQMNSLRAEDTAVYYCYYFRTVSGSSQRYWGQGTLVTVSS	8.22
2E05 anti-DLL3 trispecific protein (other, not shown: linker 1808, anti-albumin sdAb, linker 1808, anti-CD3 fragment, His6 1819) EVQLVESGGGLVQPGGSLTLSCVASGSPSSINAYGWYRRAPGKQRELVAGISSDGSKVYSDSVKGRFTISRDNAKNSVYLQMNSLRAEDTAVYYCYYFRTVSGSSMSYWGQGTLVTVSS	8.41
4A06 anti-DLL3 trispecific protein (other, not shown: linker 1808, anti-albumin sdAb, linker 1808, anti-CD3 fragment, His6 1819) EVQLVESGGGLVQPGGSLTLSCAASGSSVRFLSMAWYRQAPGKKRELVAGISRDGSTDYIDSVKGRFTISRDNAKNSVYLQMNSLRAEDTAVYYCYAYRWTTRRTYWGQGTLVTVSS	7.89
4F010 anti-DLL3 trispecific protein (other, not shown: linker 1808, anti-albumin sdAb, linker 1808, anti-CD3 fragment, His6 1819) EVQLVESGGGLVQPGGSLTLSCAASGSSVSFLSMAWYRQAPGKKRELVAGISIDGSTDYIKSVKGRFTISRDNAKNSVYLQMNSLRAEDTAVYYCYAYRWTTRYRYWGQGTLVTVSS	8.24
1F07 anti-DLL3 trispecific protein (other, not shown: linker 1808, anti-albumin sdAb, linker 1808, anti-CD3 fragment, His6 1819) EVQLVESGGGLVQPGGSLTLSCVASGSTSSINAMGWYRRAPGKQRELVAGISSDGSKVDADSVKGRFTISRDNAKNSVYLQMNSLRAEDTAVYYCYYFRTVSGSSMRYWGQGTLVTVSS	7.89
4G08 anti-DLL3 trispecific protein (other, not shown: linker 1808, anti-albumin sdAb, linker 1808, anti-CD3 fragment, His6 1819) EVQLVESGGGLVQPGGSLTLSCAASGSSVRFLSMAWYRQAPGKKRELVAGISTDGSTDYIDSVKGRFTISRDNAKNSVYLQMNSLRAEDTAVYYCYAYRWTTRYRYWGQGTLVTVSS	8.12
1H010 anti-DLL3 trispecific protein (other, not shown: linker 1808, anti-albumin sdAb, linker 1808, anti-CD3 fragment, His6 1819) EVQLVESGGGLVQPGGSLTLSCVASGSTRSINAMGWYRRAPGKQRELVAGISSDGSKVYNDSVKGRFTISRDNAKNSVYLQMNSLRAEDTAVYYCYYFRTVSGSSMRFWGQGTLVTVSS	8.08

Please examine the following record next.
So what's the measured pKd for this one? 1B010 anti-DLL3 trispecific protein (other, not shown: linker 1808, anti-albumin sdAb, linker 1808, anti-CD3 fragment, His6 1819) EVQLVESGGGLVQPGGSLTLSCVASGSTSRINAMGWYRRAPGKQRELVAGISSDGSKVYADSVKGRFTISRDNAKNSVYLQMNSLRAEDTAVYYCYYFRTKSGSSMRYWGQGTLVTVSS
8.17
